Where a name gives a salt, the structure may show the parent alone.
observation type: melting point

Cn1cnc2ccc(NC3=NCCN3)cc21 (as salt: fumarate) :: 202 to 204 °C
CCc1cc(NC2=NCCN2)cc2[nH]cnc12 (as salt: fumarate) :: 203 to 205 °C

Lab note: next compound to report on.
QUERY: Report melting point for Cc1cc(NC2=NCCN2)cc2[nH]cnc12 (as salt: fumarate)
RESULT: 229 to 231 °C

----------
Molecular target: UniProt:P18825
Sequence (P18825 whole entry): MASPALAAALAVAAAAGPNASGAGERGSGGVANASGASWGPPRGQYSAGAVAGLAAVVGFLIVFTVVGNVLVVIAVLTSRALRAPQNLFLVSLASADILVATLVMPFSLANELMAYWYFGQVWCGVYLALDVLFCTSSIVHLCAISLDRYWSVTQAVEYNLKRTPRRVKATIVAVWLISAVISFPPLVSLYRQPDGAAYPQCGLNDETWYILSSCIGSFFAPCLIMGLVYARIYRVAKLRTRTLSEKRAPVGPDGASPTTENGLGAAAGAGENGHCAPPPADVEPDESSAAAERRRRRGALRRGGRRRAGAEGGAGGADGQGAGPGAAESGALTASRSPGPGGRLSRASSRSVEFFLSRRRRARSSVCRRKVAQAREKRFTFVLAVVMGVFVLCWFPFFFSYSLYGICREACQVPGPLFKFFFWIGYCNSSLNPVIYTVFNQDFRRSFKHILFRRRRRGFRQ
Type: cell-based
Parameters: The entire coding region of α2C (1383 bp), including 2 bp of 5′ UT and 400 bp of 3′ UT; expressed in transfected cells; host or cells: LM(tk-) cells
Settings: functional cAMP assay
Protocol: Binding and functional assays were performed using stably transfected human alpha adrenergic receptors. […] The agonist activity (expressed as pEC50) was measured as a function of the ability to inhibit the forskolin-stimulated synthesis of cyclic adenosine monophosphate (cAMP). […] The assessment of cAMP formation is determined by radioimmunoassay (cAMP radioimmunoassay kit; Advanced Magnetics, Cambridge, Mass.). […]
observation type: I.A Alpha-2 C
Please give the numeric answer without any surrounding text.

CC(C)(C)c1nc2ccc(NC3=NCCN3)c(Br)c2[nH]1 :: 0.60

QUERY: Report I.A Alpha-2 C for Brc1c(NC2=NCCN2)ccc2nc(C(c3ccccc3)c3ccccc3)[nH]c12
RESULT: 0.60

QUERY: Report I.A Alpha-2 C for Brc1cc(NC2=NCCN2)cc2[nH]cnc12
RESULT: 1.00

QUERY: Report I.A Alpha-2 C for CCc1cc(NC2=NCCN2)cc2[nH]cnc12
RESULT: 0.80

QUERY: Report I.A Alpha-2 C for Cn1cnc2ccc(NC3=NCCN3)c(Br)c21
RESULT: 1.00

----------
Molecular target: α2B Human Adrenergic Receptor (Homo sapiens)
Construct: expressed in transfected cells; host or cells: Y-1 cells
Sequence (P18089 1-450): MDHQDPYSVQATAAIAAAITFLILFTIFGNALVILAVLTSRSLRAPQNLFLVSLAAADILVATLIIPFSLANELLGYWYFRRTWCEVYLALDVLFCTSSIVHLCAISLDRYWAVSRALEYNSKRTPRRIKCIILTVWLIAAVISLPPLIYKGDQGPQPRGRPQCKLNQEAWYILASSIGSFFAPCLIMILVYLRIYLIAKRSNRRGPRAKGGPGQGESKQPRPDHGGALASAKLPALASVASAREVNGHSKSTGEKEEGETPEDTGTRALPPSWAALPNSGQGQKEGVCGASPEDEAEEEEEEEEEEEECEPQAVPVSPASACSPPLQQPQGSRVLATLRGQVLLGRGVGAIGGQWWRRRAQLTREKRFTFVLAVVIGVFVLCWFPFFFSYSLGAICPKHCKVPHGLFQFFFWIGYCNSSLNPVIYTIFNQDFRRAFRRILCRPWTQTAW
Type: cell-based
Collected I.A Alpha-2 B values appear next to each entry.
Please give the numeric answer without any surrounding text.

Ic1c(NC2=NCCN2)ccc2nc[nH]c12 :: 1.00
CCCc1c(NC2=NCCN2)ccc2nc[nH]c12 :: 1.00
c1nc2ccc(NC3=NCCN3)cc2[nH]1 :: 1.00
CCc1c(NC2=NCCN2)ccc2nc[nH]c12 :: 1.00
Cn1cnc2c(Br)c(NC3=NCCN3)ccc21 :: 1.00

QUERY: For α2B Human Adrenergic Receptor (Homo sapiens), give the measured I.A Alpha-2 B of the entry Cc1cc(NC2=NCCN2)cc2[nH]cnc12
RESULT: 0.80

QUERY: For α2B Human Adrenergic Receptor (Homo sapiens), give the measured I.A Alpha-2 B of the entry CCc1nc2ccc(NC3=NCCN3)c(Br)c2[nH]1
RESULT: 0.80

QUERY: For α2B Human Adrenergic Receptor (Homo sapiens), give the measured I.A Alpha-2 B of the entry CC(C)(C)c1nc2ccc(NC3=NCCN3)c(Br)c2[nH]1
RESULT: 0.70

QUERY: For α2B Human Adrenergic Receptor (Homo sapiens), give the measured I.A Alpha-2 B of the entry Clc1cc(NC2=NCCN2)c(Br)c2[nH]cnc12
RESULT: 0.9

QUERY: For α2B Human Adrenergic Receptor (Homo sapiens), give the measured I.A Alpha-2 B of the entry Clc1cc(NC2=NCCN2)cc2[nH]cnc12
RESULT: 1.00
